Values were extracted from paper PMC9482650.

molecular target: MAST2, Q6P0Q8; experiment: holdup assay; set-up: key: below the threshold = too weak to quantify, mostly under pKd 3.1 to 4; conditions: plain residues with an end cap or a label only (N-terminal biotin on a linker: ttds)
Sequence (Q6P0Q8 1099-1202): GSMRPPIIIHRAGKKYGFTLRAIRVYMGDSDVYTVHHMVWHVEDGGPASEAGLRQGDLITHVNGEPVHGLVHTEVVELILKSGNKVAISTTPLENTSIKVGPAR
Measured Property: pKd
// return a plain number; no unit text

Please review the entries below; each comes with its answer.
- Binder: "SGGKRKETLV [NET1, Q7Z628]"
  pKd: 4.49
- Binder: "NPDALPETLV [ARHGAP6, O43182]"
  pKd: 4.65

Now turn to the next binder.
I'd like to know its pKd. The binder in question is KQVVPFSSSV [GDA, Q9Y2T3]
4.83
